# Test Method Notes: Drug uptake in iv dosed BALB/c athymic nude mouse muscle xenografted with human LNCaP cells treated with 68Ga-labeled compound measured after 1 hr by microPET imaging analysis
# Type: ADME, organism-based
# Stated Conditions: in vivo
Kindly supply the reported SUV values for the records listed here.
Give bare numbers.

O=C(O)CC[C@H](NC(=O)N[C@@H](CCCCNC(=O)[C@H]1CC[C@H](CNC(=O)c2ccc(CNC(=O)CN3CCN(CC(=O)O)CCN(CC(=O)O)CCN(CC(=O)O)CC3)cc2)CC1)C(=O)O)C(=O)O	0.14

Proceeding to the next compound to report its SUV.
SUV recorded for this compound, O=C(O)CC[C@H](NC(=O)N[C@@H](CCCCNC(=O)[C@H](Cc1ccc2ccccc2c1)NC(=O)c1ccc(CNC(=O)CN2CCN(CC(=O)O)CCN(CC(=O)O)CCN(CC(=O)O)CC2)cc1)C(=O)O)C(=O)O , is 0.1

* * *

# Test System: Glutamate carboxypeptidase 2 (Homo sapiens)
# Test Method Notes: Binding affinity to PSMA in human LNCaP cells after 45 mins in presence of 68Ga-labeled PSMA-10 by gamma counting assay
# Sequence (Q04609 whole entry): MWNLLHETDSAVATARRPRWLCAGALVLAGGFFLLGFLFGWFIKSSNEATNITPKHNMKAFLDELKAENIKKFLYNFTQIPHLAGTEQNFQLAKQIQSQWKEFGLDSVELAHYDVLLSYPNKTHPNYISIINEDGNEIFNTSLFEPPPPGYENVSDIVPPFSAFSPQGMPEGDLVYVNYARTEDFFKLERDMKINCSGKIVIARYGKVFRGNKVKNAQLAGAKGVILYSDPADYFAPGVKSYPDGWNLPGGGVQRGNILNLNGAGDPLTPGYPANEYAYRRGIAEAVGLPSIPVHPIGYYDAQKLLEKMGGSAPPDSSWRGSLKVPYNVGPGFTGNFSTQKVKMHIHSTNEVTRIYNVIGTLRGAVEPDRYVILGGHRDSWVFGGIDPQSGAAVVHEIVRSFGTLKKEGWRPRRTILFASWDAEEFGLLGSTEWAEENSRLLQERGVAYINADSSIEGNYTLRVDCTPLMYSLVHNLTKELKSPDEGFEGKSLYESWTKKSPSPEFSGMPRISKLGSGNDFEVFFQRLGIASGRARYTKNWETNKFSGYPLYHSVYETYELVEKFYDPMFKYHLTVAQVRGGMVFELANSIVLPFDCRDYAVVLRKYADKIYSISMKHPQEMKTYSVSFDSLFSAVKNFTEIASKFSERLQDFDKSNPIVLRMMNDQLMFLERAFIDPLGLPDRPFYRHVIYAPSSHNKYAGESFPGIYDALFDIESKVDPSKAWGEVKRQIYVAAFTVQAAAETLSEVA
Measured Attribute: Ki (nM)
Give bare numbers, in nM.

O=C(O)CC[C@H](NC(=O)N[C@@H](CCCCNC(=O)[C@H](Cc1ccc(-c2ccccc2)cc1)NC(=O)CN1CCN(CC(=O)O)CCN(CC(=O)O)CCN(CC(=O)O)CC1)C(=O)O)C(=O)O	0.5
O=C(O)CC[C@H](NC(=O)N[C@@H](CCCCNC(=O)[C@H](Cc1ccc2ccccc2c1)NC(=O)CCCCCNC(=O)CN1CCN(CC(=O)O)CCN(CC(=O)O)CCN(CC(=O)O)CC1)C(=O)O)C(=O)O	6.31
O=C(O)CC[C@H](NC(=O)N[C@@H](CCCCNC(=O)c1ccc(CNC(=O)c2ccc(CNC(=O)c3ccc(CNC(=O)CN4CCN(CC(=O)O)CCN(CC(=O)O)CCN(CC(=O)O)CC4)cc3)cc2)cc1)C(=O)O)C(=O)O	0.53
O=C(O)CC[C@H](NC(=O)N[C@@H](CCCCNC(=O)[C@H](Cc1ccc2ccccc2c1)NC(=O)c1ccc(CNC(=O)CN2CCN(CC(=O)O)CCN(CC(=O)O)CCN(CC(=O)O)CC2)cc1)C(=O)O)C(=O)O	1.81

For each entry beneath this line, provide reported Ki.
1. O=C(O)CC[C@H](NC(=O)N[C@@H](CCCCNC(=O)[C@H]1CC[C@H](CNC(=O)[C@H]2CC[C@H](CNC(=O)CN3CCN(CC(=O)O)CCN(CC(=O)O)CCN(CC(=O)O)CC3)CC2)CC1)C(=O)O)C(=O)O
2. O=C(O)CCc1ccc(O)c(CN(CCN(CC(=O)O)Cc2cc(CCC(=O)NCCCCCC(=O)NCCCC[C@H](NC(=O)N[C@@H](CCC(=O)O)C(=O)O)C(=O)O)ccc2O)CC(=O)O)c1 [GOZETOTIDE]
3. O=C(O)CC[C@H](NC(=O)N[C@@H](CCCCNC(=O)c1ccc(CNC(=O)c2ccc(CNC(=O)c3ccc(CNC(=O)c4ccc(CNC(=O)CN5CCN(CC(=O)O)CCN(CC(=O)O)CCN(CC(=O)O)CC5)cc4)cc3)cc2)cc1)C(=O)O)C(=O)O
4. O=C(O)CC[C@H](NC(=O)N[C@@H](CCCCNC(=O)[C@H](Cc1cccc2ccccc12)NC(=O)[C@H]1CC[C@H](CNC(=O)CN2CCN(CC(=O)O)CCN(CC(=O)O)CCN(CC(=O)O)CC2)CC1)C(=O)O)C(=O)O
5. O=C(O)CC[C@H](NC(=O)N[C@@H](CCCCNC(=O)[C@H]1CC[C@H](CNC(=O)[C@H](Cc2ccc3ccccc3c2)NC(=O)CN2CCN(CC(=O)O)CCN(CC(=O)O)CCN(CC(=O)O)CC2)CC1)C(=O)O)C(=O)O

Result:
1. 21
2. 12
3. 6.19
4. 12.8
5. 17.7

* * *

Give measured logD for each item. Keep answers brief.
# Test Method Notes: Distribution coefficient, logD of the compound at pH 7.4 in n-octanol/0.1 M HEPES by shake flask method
# Format: physicochemical

// each listed compound needs a value for logD
1. O=C(O)CC[C@H](NC(=O)N[C@@H](CCCCNC(=O)[C@H](Cc1ccc2ccccc2c1)NC(=O)c1ccc(CNC(=O)CN2CCN(CC(=O)O)CCN(CC(=O)O)CCN(CC(=O)O)CC2)cc1)C(=O)O)C(=O)O
2. O=C(O)CC[C@H](NC(=O)N[C@@H](CCCCNC(=O)[C@H]1CC[C@H](CNC(=O)[C@H](Cc2ccc3ccccc3c2)NC(=O)CN2CCN(CC(=O)O)CCN(CC(=O)O)CCN(CC(=O)O)CC2)CC1)C(=O)O)C(=O)O
3. O=C(O)CC[C@H](NC(=O)N[C@@H](CCCCNC(=O)[C@H](Cc1ccc2ccccc2c1)NC(=O)[C@H]1CC[C@H](CNC(=O)CN2CCN(CC(=O)O)CCN(CC(=O)O)CCN(CC(=O)O)CC2)CC1)C(=O)O)C(=O)O [VIPIVOTIDE TETRAXETAN]

Result:
1. -2.1
2. -1.44
3. -2

Value of measured logD for the entry O=C(O)CC[C@H](NC(=O)N[C@@H](CCCCNC(=O)[C@H](Cc1cccc2ccccc12)NC(=O)[C@H]1CC[C@H](CNC(=O)CN2CCN(CC(=O)O)CCN(CC(=O)O)CCN(CC(=O)O)CC2)CC1)C(=O)O)C(=O)O : -1.95

* * *

# Test System: Glutamate carboxypeptidase 2 (Homo sapiens)
# Test Method Notes: Inhibition of PSMA in human LNCaP cells assessed as specific internalization per 10^6 cells using 177Lu-labeled compound after 45 mins by gamma counting analysis
# Assay type: cell-based
# Sequence (Q04609 whole entry, looked up): as the sequence (Q04609 whole entry) above
Measured Attribute: specific internalization (% of added activity per 10^6 cells)
Answer format reminder: number followed by unit.

O=C(O)CC[C@H](NC(=O)N[C@@H](CCCCNC(=O)[C@H](Cc1ccc2ccccc2c1)NC(=O)c1ccc(CNC(=O)CN2CCN(CC(=O)O)CCN(CC(=O)O)CCN(CC(=O)O)CC2)cc1)C(=O)O)C(=O)O	7.17%
O=C(O)CC[C@H](NC(=O)N[C@@H](CCCCNC(=O)[C@H]1CC[C@H](CNC(=O)[C@H]2CC[C@H](CNC(=O)[C@H]3CC[C@H](CNC(=O)CN4CCN(CC(=O)O)CCN(CC(=O)O)CCN(CC(=O)O)CC4)CC3)CC2)CC1)C(=O)O)C(=O)O	0.03%
O=C(O)CC[C@H](NC(=O)N[C@@H](CCCCNC(=O)[C@H]1CC[C@H](CNC(=O)[C@H]2CC[C@H](CNC(=O)CN3CCN(CC(=O)O)CCN(CC(=O)O)CCN(CC(=O)O)CC3)CC2)CC1)C(=O)O)C(=O)O	1.43%

We now examine a further compound.
Short answer on Glutamate carboxypeptidase 2 (Homo sapiens) for O=C(O)CC[C@H](NC(=O)N[C@@H](CCCCNC(=O)c1ccc(CNC(=O)c2ccc(CNC(=O)c3ccc(CNC(=O)CN4CCN(CC(=O)O)CCN(CC(=O)O)CCN(CC(=O)O)CC4)cc3)cc2)cc1)C(=O)O)C(=O)O , specific internalization (% of added activity per 10^6 cells): 12.5%

* * *

# Test Method Notes: Drug uptake in iv dosed BALB/c athymic nude mouse tumor xenografted with human LNCaP cells treated with 68Ga-labeled compound measured after 1 hr by microPET imaging analysis
# Assay type: ADME, organism-based
# Stated Conditions: in vivo
Would you mind telling me the reported SUV of each entry?
Answers are plain numbers.

O=C(O)CC[C@H](NC(=O)N[C@@H](CCCCNC(=O)CCCCCNC(=O)c1ccc(CNC(=O)CN2CCN(CC(=O)O)CCN(CC(=O)O)CCN(CC(=O)O)CC2)cc1)C(=O)O)C(=O)O	0.3

Reported SUV for O=C(O)CC[C@H](NC(=O)N[C@@H](CCCCNC(=O)[C@H]1CC[C@H](CNC(=O)[C@H]2CC[C@H](CNC(=O)CN3CCN(CC(=O)O)CCN(CC(=O)O)CCN(CC(=O)O)CC3)CC2)CC1)C(=O)O)C(=O)O was 0.3
